All values here come from ChEMBL document CHEMBL1126992.

ASSAYED_TARGET: Adenosine receptor A1 (Rattus norvegicus, UniProt P25099)
Sequence (P25099 whole entry): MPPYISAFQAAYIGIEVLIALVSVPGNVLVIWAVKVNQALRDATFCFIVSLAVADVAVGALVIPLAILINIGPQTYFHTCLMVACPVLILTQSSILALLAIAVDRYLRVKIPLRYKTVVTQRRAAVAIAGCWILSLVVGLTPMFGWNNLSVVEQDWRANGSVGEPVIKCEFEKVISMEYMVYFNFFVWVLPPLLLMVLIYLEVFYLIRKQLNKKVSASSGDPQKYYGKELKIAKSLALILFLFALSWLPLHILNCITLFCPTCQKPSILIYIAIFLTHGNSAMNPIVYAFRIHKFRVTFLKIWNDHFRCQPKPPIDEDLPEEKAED
MEASUREMENT_LABEL: pKi
Just so you know, pKi here is -log10 of the concentration in molar units; reply with that number alone.

Give pKi (Adenosine receptor A1 (Rattus norvegicus, UniProt P25099)) of the following compound: `CSc1nc(NN2CCCCC2)c2ncn([C@@H]3O[C@H](CO)[C@@H](O)[C@H]3O)c2n1` 6.41

And `OC[C@H]1O[C@@H](n2cnc3c(NN4CCCCC4)nc(F)nc32)[C@H](O)[C@@H]1O` ? 8.44

And `OC[C@H]1O[C@@H](n2cnc3c(NN4CCOCC4)nc(Cl)nc32)[C@H](O)[C@@H]1O` ? 7.88

And `OC[C@H]1O[C@@H](n2cnc3c(NN4CCN(c5ccccc5)CC4)nc(Cl)nc32)[C@H](O)[C@@H]1O` ? 7.26
